Sourced from PubChem BioAssay

# study-system: Calcium-activated potassium channel subunit alpha-1 (Homo sapiens) + Leucine-rich repeat-containing protein 26 (Homo sapiens) (UniProt Q12791+Q2I0M4)
# Sequence (Q2I0M4 whole entry, looked up, one chain of several): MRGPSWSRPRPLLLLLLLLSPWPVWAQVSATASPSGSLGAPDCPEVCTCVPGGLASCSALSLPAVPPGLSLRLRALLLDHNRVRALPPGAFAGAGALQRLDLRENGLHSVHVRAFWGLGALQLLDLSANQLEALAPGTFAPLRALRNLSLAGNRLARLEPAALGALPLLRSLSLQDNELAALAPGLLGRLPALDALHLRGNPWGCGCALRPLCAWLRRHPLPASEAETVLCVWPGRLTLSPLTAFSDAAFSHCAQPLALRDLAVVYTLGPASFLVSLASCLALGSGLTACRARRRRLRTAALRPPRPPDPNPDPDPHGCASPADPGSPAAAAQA
# procedure-details: modulators of BK channel variants, profiling panel, selectivity assay, cell-based, U2OS BacMam, thallium flux, beta subunits (AID 1259406);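 note: initial slope of Thallos dye fluorescence rise after thallium is added; log ratio against the mean of 0.3% DMSO vehicle wells on the same plate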
# assay-conditions: F380Y/Slo1WT/gamma1, at 30 µM
Note: every record was labeled by where its log fold change Tl+ flux sits among class A (below -0.03), class B (-0.03 to below 0.02), class C (0.02 or more)

FC(F)(F)c1cccc(N2CCNCC2)c1 :: class B
COc1ccc2[nH]cc(C3=CCNCC3)c2c1 :: class C
COc1cc2c(cc1OC)[C@@]13CCN4CC5=CCO[C@H]6CC(=O)N2[C@H]1[C@H]6[C@H]5C[C@H]43 :: class A
CN1C(=O)CN=C(c2ccccc2)c2cc([N+](=O)[O-])ccc21 :: class B
C[N+]1(C)CCN(c2ccccc2)CC1 :: class B
N#CC(C#N)=Cc1cccnc1 :: class B
NC1=NC(=O)C(c2ccccc2)O1 (configuration not stated) :: class A
CNCC(O)c1ccc(O)cc1 (configuration not stated) :: class C

Q. Class label required: `CN1CC[C@@]23CCCC[C@@H]2[C@@H]1Cc1ccc(O)cc13`
A. class C

Q. Class label required: `CC(C)c1cccc(C(C)C)c1O`
A. class A

Q. Class label required: `CN1CC[C@@H](c2ccc(F)cc2)[C@H](COc2ccc3c(c2)OCO3)C1`
A. class B

Q. Class label required: `CSC(=NCc1ccccc1Cl)NC(N)=N[N+](=O)[O-]`
A. class C

---

# study-system: 6-phosphogluconate dehydrogenase, decarboxylating (Homo sapiens)
# procedure-details: 6PGD enzyme inhibitors, primary screen, biochemical, human, recombinant enzyme, NADPH absorbance (AID 1159550)
# assay-conditions: recombinant 6PGD, NADPH absorbance 341 nm; at 10 µM; active compounds read high
parameter-measured: inhibition (%)
The reply should be a number in %, with the unit left off.

Guide cases for inhibition, answers given:
O=C1C(Cl)=C(Cl)C(=O)C(Cl)=C1Cl :: 3.96
CC1(C)C2CC(=O)[C@]3(C)C(CC[C@@]4(C)[C@H](c5ccoc5)OC(=O)C5OC543)[C@@]2(C)[C@@H](O)C[C@H]1O (some centres undefined) :: -2.4
c1ccc2c(c1)sc1ccccc12 :: 9.3
CN1C(=O)CCS(=O)(=O)C1c1ccc(Cl)cc1 (centres undefined) :: -16
CNc1ccccc1C(=O)O :: 18.3

Q. Quick one: give measured inhibition for `Cc1cccc(C)c1NC1=NCCCS1`
A. -17.7

Q. Quick one: give measured inhibition for `C[C@@H]1O[C@@H](O[C@H]2C[C@@H](O)[C@]3(CO)[C@H]4[C@H](O)C[C@]5(C)[C@@H](C6=CC(=O)OC6)CC[C@]5(O)[C@@H]4CC[C@]3(O)C2)[C@H](O)[C@H](O)[C@H]1O`
A. -10.9

Q. Quick one: give measured inhibition for NC(=O)CS(=O)C(c1ccccc1)c1ccccc1 (centres undefined)
A. -7.07

Q. Quick one: give measured inhibition for `CC[C@@H](C)C(=O)O[C@H]1[C@H](O)[C@H]2[C@@H](CN3C[C@@H](C)CC[C@H]3[C@@]2(C)O)[C@@H]2C[C@]34O[C@]5(O)[C@@H](OC(=O)[C@@](C)(O)CC)CC[C@@]3(C)[C@@H]5[C@@H](OC(C)=O)[C@@H](OC(C)=O)[C@H]4[C@@]21O`
A. -7.64

Q. Quick one: give measured inhibition for O=C1CC2OCC=C3CN4CCC56c7ccccc7N1C5C2C3CC46 (centres undefined)
A. -2.71

Q. Quick one: give measured inhibition for `C[C@@H]1CC[C@@]2(NC1)O[C@H]1C[C@H]3[C@@H]4CC=C5C[C@@H](O)CC[C@]5(C)[C@H]4CC[C@]3(C)[C@H]1[C@@H]2C`
A. 11.8

Q. Quick one: give measured inhibition for CC(C)(C)C(=O)C(Oc1ccc(Cl)cc1)n1cncn1 (centres undefined)
A. 12.8

Q. Quick one: give measured inhibition for `C[CH2][Hg][S]c1ccccc1C(=O)O`
A. 17.7
